Reported melting point values are given for each entry in this list.

- COMPOUND: "COC(=O)CN1C(=O)CN=C(c2ccccc2)c2cc(Cl)ccc21"
  melting point: "137 to 138 °C"
- COMPOUND: "CCCC(CCC)Nc1cc(C(=O)OC)ccc1N1C(=O)CCC1(CO)CO"
  melting point: "139 to 140 °C"
- COMPOUND: "Nc1nc(Cl)c(NC=O)c(N[C@@H]2CC=C(CO)C2)n1"
  melting point: "148 to 150 °C"
- COMPOUND: "CNC(=O)c1cccc(NC(=O)COc2cccc(Cl)c2Cl)c1"
  melting point: "192 to 193 °C"
- COMPOUND: "CN(C)C(=O)CCCCC(=O)O"
  melting point: "80 °C"
- COMPOUND: "C=C(C(=O)c1ccc(OC)c(Cl)c1Cl)c1ccc(Br)cc1"
  melting point: "110 to 116 °C"
- COMPOUND: "CCc1cc(-c2c3ccccc3cc3oc(C)c(C)c23)cc(CC)c1OS(=O)(=O)c1ccc(C(=O)O)c(O)c1"
  melting point: "222 to 227 °C"
- COMPOUND: "CC(c1oc2ccccc2c(=O)c1-c1cccc(F)c1)n1nc(-c2ccc3[nH]ccc3c2)c2c(N)ncnc21 (stereo not given)"
  melting point: "197 to 199 °C"
- COMPOUND: "CNC(=O)c1ccnc(N2CCN(Cc3ccc(F)cc3)C2=O)c1"
  melting point: "118 to 120 °C"
- COMPOUND: "O=C(O)COc1cc(Cl)sc1C(=O)O"
  melting point: "214 °C"
- COMPOUND: "COc1ccc(-n2nc(OC(C)C)cc2-c2ccc(OCCNC(N)=O)cc2)cn1"
  melting point: "120 °C"
- COMPOUND: "COC(=O)CC[C@H](NC(=O)CCCCC=Cc1cnc2nc(NC(=O)C(C)(C)C)nc(O)c2c1)C(=O)OC"
  melting point: "79 to 81 °C"
- COMPOUND: "Cc1nc(N2CCc3ccc(F)cc3CC2)c([N+](=O)[O-])c(=O)[nH]1"
  melting point: "> 200 °C"
- COMPOUND: "COc1ccc(S(=O)(=O)N2CC(C)(C)CN(S(=O)(=O)c3ccc(OC)cc3)C2C(=O)NO)cc1"
  melting point: "125 to 126 °C"
- COMPOUND: "O=C1NCCc2c(-c3ccc(Cl)cc3)[nH]c3cccc1c23"
  melting point: "250 to 252 °C"
- COMPOUND: "O=c1nc(-c2ccsc2)c2c(=O)nc(-c3ccsc3)c1=2"
  melting point: "> 400 °C"
- COMPOUND: "N#Cc1[nH]c(-c2ccc(Cl)cc2)c(S(=O)(=O)C(F)(F)F)c1Br"
  melting point: "170 to 185 °C"
- COMPOUND: "COc1cc(C)c(C(=O)c2c(OC)cnc(Cl)c2C(F)(F)F)c(OC)c1OC"
  melting point: "117 to 119 °C"
- COMPOUND: "OCCC(O)(c1ccc(Br)cc1)c1cccnc1 (stereo not given)"
  melting point: "130 to 132 °C"
- COMPOUND: "CCOC(=O)CNC(=O)c1cn2nc(NCCCN3CCC(OC(c4ccccc4)c4ccccc4)CC3)ccc2n1"
  melting point: "172 to 174 °C"

###

PROPERTY LABEL: melting point

- COMPOUND: "COC(=O)C1Cc2cc(Br)ccc2N1C(=O)c1ccccc1 (stereo not given)"
  MEASURED RESULT: "168 to 169 °C"
- COMPOUND: "Cc1cc(C)c(NC(=O)Nc2c(-c3ccccc3Cl)c3ccncc3n(C)c2=O)c(C)c1"
  MEASURED RESULT: "222 to 224 °C"
- COMPOUND: "CC(Oc1ccc(Cl)cc1)c1nnc(N)s1 (stereo not given)"
  MEASURED RESULT: "162 to 166 °C"
- COMPOUND: "CCCCCCCCCc1c(O)nc(-c2ccc(-c3ccc(CCCCC)cc3F)cc2)nc1O"
  MEASURED RESULT: "51 °C"
- COMPOUND: "CNCCCn1c(-c2ccc(Br)cc2)csc1=Nc1ccccc1"
  MEASURED RESULT: "143 to 148 °C"
- COMPOUND: "CC(=O)OC1CCc2cc3ccccc3n2C1 (stereo not given)"
  MEASURED RESULT: "90 to 95 °C"
- COMPOUND: "CC(O)C#Cc1cc(Cl)cc2nc(-c3ccccc3Cl)oc12 (stereo not given)"
  MEASURED RESULT: "129 to 131 °C"
- COMPOUND: "CCOC(=O)C(CCc1ccccc1)=NO"
  MEASURED RESULT: "84 to 85 °C"
- COMPOUND: "COC(=O)c1cc(-n2c(OC)nc(C(F)(F)C(F)(F)F)cc2=O)c(F)cc1Cl"
  MEASURED RESULT: "80 to 82 °C"
- COMPOUND: "CCCCc1oc2ccccc2c1C(=O)NCc1ccc2c(-c3ccc(C(C)(C)C)cc3)c(OCc3nnn[nH]3)ccc2c1"
  MEASURED RESULT: "75 to 78 °C"
- COMPOUND: "O=C1Nc2c(ccc3ccccc23)SC1=Cc1ccc(Cl)cc1"
  MEASURED RESULT: "277 to 279 °C"
- COMPOUND: "CN1CCN(C(=O)c2cn(C)nc2Nc2ccc(C(F)(F)F)cc2N)CC1"
  MEASURED RESULT: "170 °C"
- COMPOUND: "Cc1cc(C#Cc2ccc(F)cc2)nc(Oc2cc(C(F)(F)F)nn2C)c1"
  MEASURED RESULT: "86 to 87 °C"
- COMPOUND: "COc1ccc(-c2sc(-c3ccccc3)cc2OC(C)=O)cc1"
  MEASURED RESULT: "81 to 82 °C"
- COMPOUND: "Cc1nnsc1C(=O)NCCc1ccccc1"
  MEASURED RESULT: "64 to 68 °C"
- COMPOUND: "O=C(O)Cn1c(-c2cccc(Br)c2)nc2cccnc21"
  MEASURED RESULT: "247 to 249 °C"
- COMPOUND: "CC(C)(C)OC(=O)N1C[C@H](NS(=O)(=O)c2ccc(Cl)cc2)C[C@H]1C=O"
  MEASURED RESULT: "120 to 122 °C"
- COMPOUND: "COc1ccc(COC(=O)CNC=S)cc1"
  MEASURED RESULT: "107 to 108 °C"
- COMPOUND: "CCOc1ccc(C(=O)N2CCc3cc(S(=O)(=O)n4cc(-c5ccccc5)[nH]c4=O)ccc32)cc1"
  MEASURED RESULT: "249 to 253 °C"
- COMPOUND: "IC#CCSc1cccnc1"
  MEASURED RESULT: "114 to 116 °C"
- COMPOUND: "Sc1c(Cl)ccc(Cl)c1S"
  MEASURED RESULT: "57 to 58 °C"
- COMPOUND: "COc1ccc(N)cc1NC(C)=O"
  MEASURED RESULT: "83 °C"
- COMPOUND: "CCOC(=O)C=Cc1c[nH]c2cnc(-n3cncn3)cc12"
  MEASURED RESULT: "235 to 238 °C"
- COMPOUND: "CN(C)C(=O)n1cc(C(=O)C2CSC(c3cccnc3)N2)c2ccc(Oc3ccc(F)cc3)cc21 (stereo not given)"
  MEASURED RESULT: "72 to 75 °C"
- COMPOUND: "CCCCCCCCCCCC=CC(O)C(COC1OC(CO)C(O)C(O)C1O)NC(=O)CCCCCCCCCCCCCCC (stereo not given)"
  MEASURED RESULT: "207 to 209 °C"
- COMPOUND: "COC(=O)c1ccc2c(c1C)SCCC2(C)C"
  MEASURED RESULT: "63 °C"
- COMPOUND: "O=[N+]([O-])c1ccc2ncnc(Nc3cc(Cl)c(Cl)cc3F)c2c1"
  MEASURED RESULT: "270 to 271 °C"
- COMPOUND: "CCOC(=O)CC(=O)c1c(F)c(F)c(N2CCC(NC(C)=O)C2)c(F)c1F (stereo not given)"
  MEASURED RESULT: "90 to 92 °C"
- COMPOUND: "CC(=NNC(=O)c1ccncc1)c1ccc2nnn(Cc3ccc4ncccc4c3)c2n1"
  MEASURED RESULT: "239 to 241 °C"
- COMPOUND: "CC(=O)N1CCC(O)(C(=O)c2cc(F)ccc2F)CC1"
  MEASURED RESULT: "118 to 120 °C"
- COMPOUND: "CC(C)=CCn1cc(C)nc1[N+](=O)[O-]"
  MEASURED RESULT: "53 to 54 °C"
- COMPOUND: "COC(=O)C(NS(=O)(=O)c1ccc(-c2ccc(NC(=O)c3oc4cccc(C(O)CO)c4c3C)cc2)cc1)C(C)C (stereo not given)"
  MEASURED RESULT: "90 to 95 °C"
- COMPOUND: "CNC1([C@@H]2CCN(c3ccc4c(=O)c(C(=O)O)cn([C@@H]5C[C@@H]5F)c4c3C)C2)CC1"
  MEASURED RESULT: "223 to 224 °C"
- COMPOUND: "O=C(c1ccn2c1CSC2c1cccnc1)c1cn(S(=O)(=O)c2ccccc2)c2cc(-c3ccc(F)cc3)ccc12 (stereo not given)"
  MEASURED RESULT: "115 to 116 °C"
- COMPOUND: "OC(COc1cccc2c1SCCC2)CN1CCC(c2ccccc2)CC1 (stereo not given)"
  MEASURED RESULT: "104 °C"
- COMPOUND: "CC1(C)CC(=O)N(CC(COc2ccc(-c3ccc(C#N)cc3)cc2)N(O)C=O)C(=O)C1 (stereo not given)"
  MEASURED RESULT: "121 °C"
- COMPOUND: "c1ccc(-c2cc3ncnc(Nc4ccc(NCc5c[nH]c6ccccc56)cc4)c3s2)cc1"
  MEASURED RESULT: "259 to 261 °C"
- COMPOUND: "NC(=O)N(O)Cc1sccc1Br"
  MEASURED RESULT: "138 to 140 °C"
- COMPOUND: "Cc1nn(-c2ccc(Cl)nn2)c(C)c1N"
  MEASURED RESULT: "165 to 168 °C"
- COMPOUND: "CCN1CCN(CCN2CC[C@H](NC(=O)c3cc(Cl)c(N)cc3OC)[C@H](OC)C2)C1=O (relative stereo)"
  MEASURED RESULT: "153 °C"

Source listed as a melting point compilation (Tetko et al.; mined from patent text by program, amines drawn as free bases though some values may be those of a salt).
